- assayNotes: Stability of cannabinoid and Vitamin E components of Beverage 1 (AB White) stored at 8° C. and 21-25° C., LCMSMS over 570 days
- Type: physicochemical
- testContext: beverage stored at 21-25° C., day 3
Use fulfilled when the recorded Stability in AB White, 21-25° C. (content by LCMSMS) is no lower than 0.5 µg/mL; use not fulfilled when it is lower.

Is it the case that CCCCCc1cc(O)c2c(c1)OC(C)(CCC=C(C)C)C=C2 (stereo not drawn) [CBC, cannabichromene] has Stability in AB White, 21-25° C. (content by LCMSMS) reaching or exceeding 0.5 µg/mL?
not fulfilled

CCCCCc1cc(O)c2c(c1)OC1(C)CCC3C1C2C3(C)C (stereo not drawn) [CBL, cannabicyclol] ?
fulfilled

CCCc1cc(O)c2c(c1)OC(C)(C)[C@@H]1CCC(C)=C[C@@H]21 [THCV, delta-9-tetrahydrocannabivarin] ?
fulfilled

CCCCCc1cc(O)c(C/C=C(\C)CCC=C(C)C)c(O)c1 [CBG, cannabigerol] ?
fulfilled

CCCCCc1cc(O)c2c(c1)OC(C)(C)c1ccc(C)cc1-2 [CBN, cannabinol] ?
fulfilled

CCCCCc1cc2c(c(O)c1C(=O)O)[C@@H]1C=C(C)CC[C@H]1C(C)(C)O2 [D9 THCA, delta-9-tetrahydrocannabinolic acid] ?
fulfilled

C=C(C)[C@@H]1CCC(C)=C[C@H]1c1c(O)cc(CCCCC)c(C(=O)O)c1O [CBDA, cannabidiolic acid] ?
fulfilled

C=C(C)[C@@H]1CCC(C)=C[C@H]1c1c(O)cc(CCC)cc1O [CBDV, cannabidivarin] ?
not fulfilled

CCCCCc1cc(O)c2c(c1)OC(C)(C)[C@@H]1CCC(C)=C[C@@H]21 [D9 THC, delta-9-tetrahydrocannabinol, reference compound] ?
fulfilled

###

- assayNotes: Stability of cannabinoid and Vitamin E components of Beverage 1 (AB White) stored at 8° C. and 21-25° C., LCMSMS over 570 days
- Type: physicochemical
- testContext: beverage stored at 8° C., day 300
propertyLabel: Stability in AB White, 8° C. (content by LCMSMS) (µg/mL)
Field: numeric (µg/mL). Do not append units.

Suppose we examine the compound CCCCCc1cc2c(c(O)c1C(=O)O)[C@@H]1C=C(C)CC[C@H]1C(C)(C)O2 [D9 THCA, delta-9-tetrahydrocannabinolic acid] ; what Stability in AB White, 8° C. (content by LCMSMS) value has been reported?
0.939

CCCCCc1cc(O)c2c(c1)OC(C)(CCC=C(C)C)C=C2 (stereo not shown) [CBC, cannabichromene] ?
0.313

CCCCCc1cc(O)c2c(c1)OC1(C)CCC3C1C2C3(C)C (stereo not shown) [CBL, cannabicyclol] ?
0.526

CCCc1cc(O)c2c(c1)OC(C)(C)[C@@H]1CCC(C)=C[C@@H]21 [THCV, delta-9-tetrahydrocannabivarin] ?
3.46

C=C(C)[C@@H]1CCC(C)=C[C@H]1c1c(O)cc(CCCCC)cc1O [CBD, cannabidiol, reference compound] ?
27.96

C=C(C)[C@@H]1CCC(C)=C[C@H]1c1c(O)cc(CCC)cc1O [CBDV, cannabidivarin] ?
0.143

CCCCCc1cc(O)c2c(c1)OC(C)(C)[C@@H]1CCC(C)=C[C@@H]21 [D9 THC, delta-9-tetrahydrocannabinol, reference compound] ?
11.70

CCCCCc1cc(O)c(C/C=C(\C)CCC=C(C)C)c(O)c1 [CBG, cannabigerol] ?
4.74

CCCCCc1cc(O)c2c(c1)OC(C)(C)c1ccc(C)cc1-2 [CBN, cannabinol] ?
2.71

C=C(C)[C@@H]1CCC(C)=C[C@H]1c1c(O)cc(CCCCC)c(C(=O)O)c1O [CBDA, cannabidiolic acid] ?
1.69

Reference for the values: patent US20240415914A1
